Listed below: Kochia plant response rating (0 to 100 scale) values for each entry.
- Test system: kochia (Kochia scoparia)
- PROCEDURE_SUMMARY: Test A preemergence, visual injury rating 0-100
- Type: in vivo
- CONDITION_PARAMETERS: 500 g ai/ha
REPORTED_METRIC: Kochia plant response rating (0 to 100 scale)

1) CC1=[N+]([O-])C(C(=O)Nc2cccc(F)c2F)C(c2cc(C)nc(OC(F)F)c2)C1 (racemic)	50
2) CC1=[N+]([O-])C(C(=O)Nc2cccc(F)c2F)C(c2cc(C(F)(F)F)cc(C(F)(F)F)c2)C1 (racemic)	20
3) CC1=[N+]([O-])C(C(=O)Nc2cccc(F)c2F)C(c2ccc(C)c(Br)c2)C1 (racemic)	80
4) CC1=[N+]([O-])C(C(=O)Nc2cccc(F)c2F)C(c2ccc(C)c(Cl)c2)C1 (racemic)	80
5) CC1=[N+]([O-])C(C(=O)Nc2cccc(F)c2F)C(c2cc(C)cc(C(F)(F)F)c2)C1 (stereo not drawn)	50
6) COc1cccc(C2CC(C)=[N+]([O-])C2C(=O)Nc2cccc(F)c2F)n1 (racemic)	0
7) CC1=[N+]([O-])C(C(=O)Nc2cccc(F)c2F)C(c2ccccc2)C1 (stereo not drawn)	60
8) CC1=[N+]([O-])C(C(=O)Nc2cccc(F)c2F)C(c2cc(F)c(F)c(F)c2)C1 (stereo not drawn)	70
9) CC1=[N+]([O-])C(C(=O)Nc2cccc(F)c2F)C(c2cccc(Oc3ccc(Cl)cn3)c2)C1 (racemic)	0
10) COc1cc(C2CC(C)=[N+]([O-])C2C(=O)Nc2cccc(F)c2F)cc(C)n1 (racemic)	60
11) CC1=[N+]([O-])C(C(=O)Nc2cccc(F)c2F)C(c2ccc(C(F)(F)F)nc2)C1 (racemic)	80
12) CC1=[N+]([O-])C(C(=O)Nc2cccc(F)c2F)C(c2cccc3c2CCC3)C1 (racemic)	80
13) CC1=[N+]([O-])C(C(=O)Nc2cccc(F)c2F)C(c2cc(C)c(F)c(C)c2)C1 (racemic)	90
14) CC1=[N+]([O-])C(C(=O)Nc2cccc(F)c2F)C(c2cc(C)ccc2C)C1 (racemic)	20
15) CCc1cc(CC)cc(C2CC(C)=[N+]([O-])C2C(=O)Nc2cccc(F)c2F)c1 (racemic)	50

----------
- System: pigweed (Amaranthus retroflexus)
- PROCEDURE_SUMMARY: Test A preemergence, visual injury rating 0-100
- Type: in vivo
- CONDITION_PARAMETERS: 500 g ai/ha, 0 to 100 scale
Listed below: Pigweed plant response rating values for each entry.
REPORTED_METRIC: Pigweed plant response rating

1. CC1=[N+]([O-])C(C(=O)Nc2cccc(F)c2F)C(c2cccc(F)c2)C1 (racemic)	40
2. CSc1ccccc1NC(=O)C1C(c2ccc(C(F)(F)F)cc2)CC(C)=[N+]1[O-] (racemic)	90
3. CC1=[N+]([O-])C(C(=O)Nc2cccc(F)c2F)C(c2cccc(C(C)C)c2)C1 (racemic)	30
4. CC1=[N+]([O-])[C@@H](C(=O)Nc2ccccc2F)[C@H](c2ccc(C(F)(F)F)cc2)C1 (relative stereo)	90
5. CC1=[N+]([O-])C(C(=O)Nc2cccc(F)c2F)C(c2ccc(F)c(F)c2)C1 (racemic)	60
6. CC1=[N+]([O-])C(C(=O)Nc2cccc(F)c2F)C(c2ccccc2C)C1 (racemic)	0
7. CC1=[N+]([O-])C(C(=O)Nc2cccc(F)c2F)C(c2ccc(C#N)cc2)C1 (racemic)	20

----------
Listed below: Wheat plant response rating values for each entry.
- Test system: wheat (Triticum aestivum)
- PROCEDURE_SUMMARY: Test A postemergence, visual injury rating 0-100
- Type: in vivo
- CONDITION_PARAMETERS: 125 g ai/ha, 0 to 100 scale
- Description: […]
REPORTED_METRIC: Wheat plant response rating

1. CC1=[N+]([O-])[C@@H](C(=O)Nc2cccc(F)c2F)[C@H](c2cccc(OC(C)C)c2)C1	30
2. CC1=[N+]([O-])C(C(=O)Nc2cccc(F)c2F)C(c2ccc(F)c(Oc3ccc(Cl)nc3)c2)C1 (racemic)	10
3. CC1=[N+]([O-])C(C(=O)Nc2cccc(F)c2F)C(c2ccc(F)cc2Oc2ncc(F)cn2)C1 (racemic)	30
4. CC1=[N+]([O-])C(C(=O)Nc2cccc(F)c2F)C(c2cccc(C)c2)C1 (racemic)	40
5. CC1=[N+]([O-])[C@H](C(=O)Nc2cccc(F)c2F)[C@@H](c2ccc(Cl)cc2)C1	10
6. CC1=[N+]([O-])C(C(=O)Nc2cccc(F)c2F)C(c2ccccc2C)C1 (racemic)	0
7. COc1cc(C)cc(C2CC(C)=[N+]([O-])C2C(=O)Nc2cccc(F)c2F)c1 (stereo not shown)	20

----------
- Test system: ryegrass, Italian (Italian ryegrass, Lolium multiflorum)
- PROCEDURE_SUMMARY: Test A postemergence, visual injury rating 0-100
- Format: in vivo
- CONDITION_PARAMETERS: 31 g ai/ha, 0 to 100 scale
REPORTED_METRIC: Ryegrass, Italian plant response rating

1) CC1=[N+]([O-])[C@@H](C(=O)Nc2cccc(F)c2F)[C@H](c2ccc(F)c(F)c2)C1 [Compound 39]	0
2) CC1=[N+]([O-])[C@@H](C(=O)Nc2cccc(F)c2F)[C@H](c2cccc(OC(C)C)c2)C1 [Compound 55]	50
3) CC1=[N+]([O-])[C@@H](C(=O)Nc2cccc(F)c2F)[C@H](c2cccc(OC(C)(C)C)c2)C1 [Compound 69]	30
4) CC1=[N+]([O-])[C@H](C(=O)Nc2cccc(F)c2F)[C@@H](c2ccc(C(F)(F)F)cc2)C1 [Compound 30]	20
5) CC1=[N+]([O-])C(C(=O)Nc2cccc(F)c2F)C(c2ccc(F)c(Oc3ccc(F)cn3)c2)C1 (racemic) [Compound 48]	30
6) CC1=[N+]([O-])[C@H](C(=O)Nc2cccc(F)c2F)[C@@H](c2ccc(F)c(OC(F)(F)C(F)F)c2)C1 [Compound 54]	0
7) CC1=[N+]([O-])C(C(=O)Nc2cccc(F)c2F)C(c2ccc(F)c(Oc3ccc(Cl)nc3)c2)C1 (racemic) [Compound 51]	0

----------
- Tested on: barnyardgrass (Echinochloa crus-galli)
- PROCEDURE_SUMMARY: Test B flooded paddy test, visual rating 0-100
- CONDITION_PARAMETERS: Flood, 250 g ai/ha, applied to paddy water, rated after 13 to 15 days
Listed below: Barnyardgrass plant response rating (0 to 100 scale) values for each entry.
REPORTED_METRIC: Barnyardgrass plant response rating (0 to 100 scale)

1) CC1=[N+]([O-])C(C(=O)Nc2cccc(F)c2F)C(c2cc(C)ccc2C)C1 (racemic) [Compound 79]	60
2) CC1=[N+]([O-])C(C(=O)Nc2cccc(F)c2F)C(c2cc(F)c(F)c(Oc3ncc(F)cn3)c2)C1 (racemic) [Compound 85]	0
3) CC1=[N+]([O-])C(C(=O)Nc2cccc(F)c2F)C(c2cc(C(F)(F)F)ccc2C)C1 (stereo not shown) [Compound 98]	55
4) CC1=[N+]([O-])C(C(=O)Nc2cccc(F)c2F)C(c2cccc(Cl)c2)C1 (racemic) [Compound 3]	80
5) CC1=[N+]([O-])[C@@H](C(=O)Nc2cccc(F)c2F)[C@H](c2cccc(OC(C)(C)C)c2)C1 [Compound 69]	90
6) CC1=[N+]([O-])[C@H](C(=O)Nc2cccc(F)c2F)[C@@H](c2ccc(F)c(OC(F)(F)C(F)F)c2)C1 [Compound 54]	35
7) CC1=[N+]([O-])C(C(=O)Nc2cccc(F)c2F)C(c2ccc(F)c(Cl)c2)C1 (racemic) [Compound 63]	65

----------
Listed below: Foxtail, Giant plant response rating (0 to 100 scale) values for each entry.
- Tested on: foxtail, giant (giant foxtail, Setaria faberii)
- PROCEDURE_SUMMARY: Test A preemergence, visual injury rating 0-100
- Assay type: in vivo
- CONDITION_PARAMETERS: 125 g ai/ha
REPORTED_METRIC: Foxtail, Giant plant response rating (0 to 100 scale)

1) CC1=[N+]([O-])C(C(=O)Nc2cccc(F)c2F)C(c2cc(C)cc(C)c2)C1 (racemic)	90
2) CC1=[N+]([O-])[C@H](C(=O)Nc2cccc(F)c2F)[C@@H](c2ccc(C)cc2)C1 (relative stereo)	100
3) CC1=[N+]([O-])C(C(=O)Nc2cccc(F)c2F)C(c2cccc(C)c2)C1 (racemic)	100
4) CC1=[N+]([O-])C(C(=O)Nc2cccc(F)c2F)C(c2ccccc2C)C1 (racemic)	90
5) CC1=[N+]([O-])C(C(=O)Nc2cccc(F)c2F)C(c2ccc(F)cc2Oc2ncc(F)cn2)C1 (racemic)	50
6) CC1=[N+]([O-])[C@@H](C(=O)Nc2cccc(F)c2F)[C@H](c2cccc(OC(C)C)c2)C1	90
7) CC1=[N+]([O-])C(C(=O)Nc2cccc(F)c2F)C(c2cc(F)ccc2C)C1 (racemic)	60
